# System: 521955-158-R2-J5-PDC complex spheroids, viability
# Assay Method Text: Anticancer human tumor 521955-158-R2-J5-PDC patient-derived pancreatic carcinoma cell line growth inhibition [RAS]
# Condition Details: second compound 0.000949 µM; first compound 0.1 µM; active compounds read low
Field: label. Allowed values: t (viability, T/C < 30%) or f (viability, T/C >= 30%).

Compound	Assigned Category
CC(Nc1ccc2c(c1)OCCn1cc(N3C(=O)OCC3C(F)F)nc1-2)C(N)=O (stereo not given) + CCn1c(-c2cc(N3CCN(C)CC3)cnc2C(C)OC)c2c3cc(ccc31)-c1csc(n1)CC(NC(=O)C1CC1C)C(=O)N1CCCC(N1)C(=O)OCC(C)(C)C2	t
C=CC(=O)Nc1cc(Nc2nccc(-c3cn(C)c4ccccc34)n2)c(OC)cc1N(C)CCN(C)C + CCn1c(-c2cccnc2C(C)OC)c2c3cc(ccc31)N1CCOC(CC(NC(=O)C(C(C)C)N(C)C(=O)C3(F)CCN(C(=O)C#CC(C)(C)N(C)C)CC3)C(=O)N3CCCC(N3)C(=O)OCC(C)(C)C2)C1	f
NC1c2ccccc2OC12CCN(c1cnc3c(N4CCCc5ncccc54)n[nH]c3n1)CC2 (stereo not given) + CCn1c(-c2cc(N3CCN(C)CC3)cnc2C(C)OC)c2c3cc(ccc31)-c1csc(n1)CC(NC(=O)C1CC1C)C(=O)N1CCCC(N1)C(=O)OCC(C)(C)C2	f
O=C(c1ccc(F)c(F)c1Nc1ccc(I)cc1F)N1CC(O)([C@@H]2CCCCN2)C1 + CCn1c(-c2cc(N3CCN(C)CC3)cnc2C(C)OC)c2c3cc(ccc31)-c1csc(n1)CC(NC(=O)C1CC1C)C(=O)N1CCCC(N1)C(=O)OCC(C)(C)C2	f
CCC(CC)c1cc(NC2CCC(N)C2)n2nccc2n1 (stereo not given) + CCn1c(-c2cccnc2C(C)OC)c2c3cc(ccc31)N1CCOC(CC(NC(=O)C(C(C)C)N(C)C(=O)C3(F)CCN(C(=O)C#CC(C)(C)N(C)C)CC3)C(=O)N3CCCC(N3)C(=O)OCC(C)(C)C2)C1	f

---

The compounds listed here are annotated with their viability, T/C.
# Test system: 521955-158-R2-J5-PDC complex spheroids, viability
# Assay Method Text: Anticancer human tumor 521955-158-R2-J5-PDC cell line growth inhibition [RAS];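 further: spheroids also contain HUVEC endothelial cells and mesenchymal stem cells as stroma; compound exposure lasted seven days before the viability read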
# Condition Details: second compound 1 µM; first compound 0.0316 µM; active compounds read low

Compound	viability, T/C, %
Cc1nc(N2CCC3(CC2)COC(C)C3N)c(CO)nc1Sc1ccnc(N)c1Cl (stereo not given) + C=CC(=O)N1CCN(c2nc(OCC3CCCN3C)nc3c(F)c(-c4nc(N)cc(C)c4C(F)(F)F)c(Cl)cc23)C(C)C1	106
O=C(c1ccc(F)c(F)c1Nc1ccc(I)cc1F)N1CC(O)([C@@H]2CCCCN2)C1 + C#Cc1c(F)ccc2cc(O)cc(-c3ncc4c(N5CC6CCC(C5)N6)nc(OCC56CCCN5CC(F)C6)nc4c3F)c12	38.6
CC(=O)OC12COC1CC(O)C1(C)C(=O)C(O)C3=C(C)C(OC(=O)C(O)C(NC(=O)OC(C)(C)C)c4ccccc4)CC(O)(C(OC(=O)c4ccccc4)C21)C3(C)C (stereo not given) + C=CC(=O)N1CCN(c2nc(OCC3CCCN3C)nc3c(F)c(-c4nc(N)cc(C)c4C(F)(F)F)c(Cl)cc23)C(C)C1	31.8
C=CC(=O)N1CCN(c2nc(OCC3CCCN3C)nc3c(F)c(-c4nc(N)cc(C)c4C(F)(F)F)c(Cl)cc23)C(C)C1 (stereo not given) + C#Cc1c(F)ccc2cc(O)cc(-c3ncc4c(N5CC6CCC(C5)N6)nc(OCC56CCCN5CC(F)C6)nc4c3F)c12	47.1
C[C@@H](NC(=O)c1ncnc(N)c1Cl)c1ncc(C(=O)Nc2cc(C(F)(F)F)c(Cl)cn2)s1 + C=CC(=O)N1CCN(c2nc(OCC3CCCN3C)nc3c(F)c(-c4nc(N)cc(C)c4C(F)(F)F)c(Cl)cc23)C(C)C1	198
Nc1ccn(C2OC(CO)C(O)C2(F)F)c(=O)n1 (stereo not given) + C#Cc1c(F)ccc2cc(O)cc(-c3ncc4c(N5CC6CCC(C5)N6)nc(OCC56CCCN5CC(F)C6)nc4c3F)c12	27.7
CC1(O)CCCC1n1c(=O)c(C(F)F)cc2cnc(NC3CCN(S(C)(=O)=O)CC3)nc21 (stereo not given) + C=CC(=O)N1CCN(c2nc(OCC3CCCN3C)nc3c(F)c(-c4nc(N)cc(C)c4C(F)(F)F)c(Cl)cc23)C(C)C1	127
CCN1CCN(Cc2ccc(Nc3ncc(F)c(-c4cc(F)c5nc(C)n(C(C)C)c5c4)n3)nc2)CC1 + C#Cc1c(F)ccc2cc(O)cc(-c3ncc4c(N5CC6CCC(C5)N6)nc(OCC56CCCN5CC(F)C6)nc4c3F)c12	58
CC(C)NCC(C(=O)N1CCN(c2ncnc3c2C(C)CC3O)CC1)c1ccc(Cl)cc1 (stereo not given) + C=CC(=O)N1CCN(c2nc(OCC3CCCN3C)nc3c(F)c(-c4nc(N)cc(C)c4C(F)(F)F)c(Cl)cc23)C(C)C1	103
Nc1ccn(C2OC(CO)C(O)C2(F)F)c(=O)n1 (stereo not given) + C=CC(=O)N1CCN(c2nc(OCC3CCCN3C)nc3c(F)c(-c4nc(N)cc(C)c4C(F)(F)F)c(Cl)cc23)C(C)C1	74.4
